Experiment: Catalepsy by oral route in Sprague-Dawley rats
Format: in vivo
Conditions: ratio of ED50 values, Catalepsy/Climbing
Overview of recorded R (Catalepsy/Climbing) for various compounds
Just the number, please, no unit after it.

Would you please look over these solved cases?
smiles-record | recorded-endpoint | value-reported
Cc1nc2scc(-c3ccc(F)cc3)n2c(=O)c1CCN1CCC(c2noc3cc(F)ccc23)CC1 | R (Catalepsy/Climbing) | 3.2
COc1cccc(-c2csc3nc(C)c(CCN4CCC(c5noc6cc(F)ccc56)CC4)c(=O)n23)c1 | R (Catalepsy/Climbing) | 2.1

Would you kindly look at the next entry?
Query :: Complete the entry with R (Catalepsy/Climbing) for Cc1nc2scc(-c3ccc4c(c3)OCO4)n2c(=O)c1CCN1CCC(c2noc3cc(F)ccc23)CC1
Result :: 2.6

###

Assay: Catalepsy by oral route in Sprague-Dawley rats
Format: in vivo
Details: rat, in vivo; oral, Sprague-Dawley rats, 50% of treated animals showed catalepsy
# ED50 per entry

smiles-record | ED50
Cc1nc2scc(-c3ccccc3Cl)n2c(=O)c1CCN1CCC(c2noc3cc(F)ccc23)CC1 | > 50 mg/kg
Cc1ccc(-c2csc3nc(C)c(CCN4CCC(c5noc6cc(F)ccc56)CC4)c(=O)n23)cc1 | 22.5 mg/kg
Cc1nc2scc(-c3ccc(Cl)cc3)n2c(=O)c1CCN1CCC(c2noc3cc(F)ccc23)CC1 | 9.5 mg/kg

Note: attention shifts to another entry.
Query :: // Input: COc1cccc(-c2csc3nc(C)c(CCN4CCC(c5noc6cc(F)ccc56)CC4)c(=O)n23)c1 . Output its ED50 only.
Result :: 40 mg/kg

###

// reported pIC50 for each item listed
Biological target: D2 receptors (Rattus norvegicus, UniProt P61169)
Construct: membrane corresponding to 20 mg of rat striatum
Sequence (P61169 whole entry): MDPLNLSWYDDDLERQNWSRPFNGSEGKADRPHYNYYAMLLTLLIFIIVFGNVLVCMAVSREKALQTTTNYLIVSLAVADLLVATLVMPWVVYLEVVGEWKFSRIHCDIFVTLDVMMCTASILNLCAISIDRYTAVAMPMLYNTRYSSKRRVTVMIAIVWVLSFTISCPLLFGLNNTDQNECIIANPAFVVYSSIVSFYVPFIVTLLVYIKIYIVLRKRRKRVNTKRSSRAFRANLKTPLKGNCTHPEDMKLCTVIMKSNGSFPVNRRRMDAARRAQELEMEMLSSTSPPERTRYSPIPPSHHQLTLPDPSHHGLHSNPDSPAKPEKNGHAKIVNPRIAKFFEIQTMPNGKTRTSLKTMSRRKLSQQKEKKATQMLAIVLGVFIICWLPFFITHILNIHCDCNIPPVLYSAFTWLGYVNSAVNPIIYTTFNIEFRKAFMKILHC
Assay: Specific binding to D2 receptors ([3H]spiperone, rat striatum membrane)
Conditions: [3H]spiperone 2 nM, rat striatum membrane, 20 min, 35° C., pH 7.4
Lab note — pIC50 values are minus log10 of concentrations in M.

Worked set:
smiles-record | system-name | pIC50
COc1cccc(-c2csc3nc(C)c(CCN4CCC(c5noc6cc(F)ccc56)CC4)c(=O)n23)c1 | D2 receptors (Rattus norvegicus, UniProt P61169) | 7.55
Cc1nc2scc(-c3ccccc3)n2c(=O)c1CCN1CCC(c2noc3cc(F)ccc23)CC1 | D2 receptors (Rattus norvegicus, UniProt P61169) | 7.36
COc1ccc(-c2csc3nc(C)c(CCN4CCC(C(=O)c5ccc(F)cc5)CC4)c(=O)n23)cc1 | D2 receptors (Rattus norvegicus, UniProt P61169) | 7.10

Now turn to the next molecule.
Query :: Query pIC50 for Cc1ccc(-c2csc3nc(C)c(CCN4CCC(c5noc6cc(F)ccc56)CC4)c(=O)n23)cc1
Result :: 7.44

###

Target: D2 receptors (Rattus norvegicus, UniProt P61169)
Construct: membrane corresponding to 20 mg of rat striatum
Experiment: Specific binding to D2 receptors ([3H]spiperone, rat striatum membrane)
Conditions: [3H]spiperone 2 nM, rat striatum membrane, 20 min, 35° C., pH 7.4
Mark each entry 1 if its IC50 sits below 20 nM, and -1 for all others.

Check out these entries, answers already filled in.
smiles-record | system-name | label-value
Cc1nc2scc(-c3cccc(Cl)c3)n2c(=O)c1CCN1CCC(c2noc3cc(F)ccc23)CC1 | D2 receptors (Rattus norvegicus, UniProt P61169) | 1
Cc1nc2scc(-c3ccc(Cl)c(Cl)c3)n2c(=O)c1CCN1CCC(c2noc3cc(F)ccc23)CC1 | D2 receptors (Rattus norvegicus, UniProt P61169) | 1
Cc1cccc(-c2csc3nc(C)c(CCN4CCC(c5noc6cc(F)ccc56)CC4)c(=O)n23)c1 | D2 receptors (Rattus norvegicus, UniProt P61169) | -1
Cc1nc2scc(-c3ccc4c(c3)OCO4)n2c(=O)c1CCN1CCC(c2noc3cc(F)ccc23)CC1 | D2 receptors (Rattus norvegicus, UniProt P61169) | 1
COc1ccc(-c2csc3nc(C)c(CCN4CCC(c5noc6cc(F)ccc56)CC4)c(=O)n23)cc1 | D2 receptors (Rattus norvegicus, UniProt P61169) | -1

Query :: Check if IC50 falls below 20 nM for Cc1nc2scc(-c3cccc(C(F)(F)F)c3)n2c(=O)c1CCN1CCC(c2noc3cc(F)ccc23)CC1 .
Result :: -1
